Test system: SNB-19
assay-remarks: NCI tumour cell line growth inhibition, 48 h
Calls of active or inactive are those of the source. Cut-off read from the data, not from the text of the source: active = GI50 up to about 1.1 µM and inactive = higher.
As shown below, each of these compounds has a reported GI50 value.

>>> endpoint_result("Cc1cc2c([N+](=O)[O-])cc3c(c2o1)C(=O)C=CC3=O")
"15.5 µM (inactive)"
>>> endpoint_result("CC(=O)O[C@@H]1C2=C(C)C=C(O2)[C@H]2O[C@]2(C)C[C@H]2C=C(C(=O)O2)[C@H](OC(C)=O)CC1[C@@]1(C)CO1 (stereo not given in full)")
"> 100 µM (inactive)"
>>> endpoint_result("COc1cccc(CCNC(=O)Cc2ccccc2CCO)c1")
"> 100 µM (inactive)"
>>> endpoint_result("CCOc1cc(NC(C)=O)ccc1C(=O)NN1C(=O)CSC1c1ccc(O)c(OC)c1 (stereo not given)")
"89.1 µM (inactive)"
>>> endpoint_result("CCOC(=O)Cc1csc(Nc2ccccc2[N+](=O)[O-])n1")
"> 100 µM (inactive)"

// field: GI50; key: "CCc1cccc(C)c1NC(=O)CCc1n[nH]c(=S)o1" ; value = > 100 µM (inactive)

// field: GI50; key: O=C1NC2OC(CO)C(O)C(O1)C2O (stereo not given) ; value = > 100 µM (inactive)

// field: GI50; key: "Cc1nnc(N/N=C2/C(=O)Nc3ccccc32)nc1O" ; value = > 100 µM (inactive)

// field: GI50; key: "O=[N+]([O-])C(=C1c2ccccc2-c2ccccc21)[N+](=O)[O-]" ; value = 97.5 µM (inactive)

// field: GI50; key: "N#CCCN(c1ccc(/C=C2\N=C(c3ccc(Cl)cc3)OC2=O)cc1)S(=O)(=O)c1ccccc1" ; value = > 100 µM (inactive)

* * *

As shown below, each of these compounds has a reported GI50 value.
Tested on: T47D
assay-remarks: NCI tumour cell line growth inhibition, 48 h
The source made the active and inactive calls. No stated cut-off is given here; in the data, active = GI50 up to about 1.1 µM and inactive = higher.

>>> endpoint_result("CC(=O)OC1C(Oc2c(C)cc3c(c2O)[C@@H](C)CC[C@@H]3[C@@H](C)CCC=C(C)C)OCC(O)C1O (stereo partly specified)")
"22.4 µM (inactive)"
>>> endpoint_result("Cc1cc2c([N+](=O)[O-])cc3c(c2o1)C(=O)C=CC3=O")
"3.12 µM (inactive)"
>>> endpoint_result("N#Cc1c(N2CCOCC2)ncn(-c2ccc(Cl)cc2)c1=O")
"> 100 µM (inactive)"
>>> endpoint_result("C=CC(C)(C)C(=C)C(=O)Nc1ccccc1I")
"> 100 µM (inactive)"
>>> endpoint_result("O/N=C\\c1cc(O)c(O)c(/C=N/O)c1")
"36.1 µM (inactive)"
>>> endpoint_result("O=c1ccc2ccc(CBr)cc2o1")
"2.38 µM (inactive)"
>>> endpoint_result("O=C(O)Cc1ccc([N+](=O)[O-])cc1[N+](=O)[O-]")
"> 100 µM (inactive)"
>>> endpoint_result("S=C(N1CCN(c2cccc(Cl)c2)CC1)N1CCN(c2cccc(Cl)c2)CC1")
"16.9 µM (inactive)"
>>> endpoint_result("Cc1cnc2[nH]c(-c3cccc(F)c3)cc(=O)c2c1")
"15.6 µM (inactive)"
>>> endpoint_result("CSC1=NC(=O)CCN1C1OCC(OC(C)=O)C(OC(C)=O)C1OC(C)=O (stereo unspecified)")
"16.8 µM (inactive)"

Please turn your attention to the following entry.
// field: GI50; key: "COc1ccc(CNC(=O)[C@H](Cc2ccc(O)cn2)NC(C)=O)cc1" ; value = > 100 µM (inactive)

Where these numbers come from: ChEMBL document CHEMBL1201862
